Each item that follows carries a reported pKi.
testedOn: DHFR-TS from Trypanosoma cruzi (Trypanosoma cruzi, UniProt Q27793)
Construct: pET 11c with the insertion of the complete ORF of the gene tc-dhfrts; made in house; host or cells: E. coli BL21 (DE3)
Sequence (Q27793 whole entry): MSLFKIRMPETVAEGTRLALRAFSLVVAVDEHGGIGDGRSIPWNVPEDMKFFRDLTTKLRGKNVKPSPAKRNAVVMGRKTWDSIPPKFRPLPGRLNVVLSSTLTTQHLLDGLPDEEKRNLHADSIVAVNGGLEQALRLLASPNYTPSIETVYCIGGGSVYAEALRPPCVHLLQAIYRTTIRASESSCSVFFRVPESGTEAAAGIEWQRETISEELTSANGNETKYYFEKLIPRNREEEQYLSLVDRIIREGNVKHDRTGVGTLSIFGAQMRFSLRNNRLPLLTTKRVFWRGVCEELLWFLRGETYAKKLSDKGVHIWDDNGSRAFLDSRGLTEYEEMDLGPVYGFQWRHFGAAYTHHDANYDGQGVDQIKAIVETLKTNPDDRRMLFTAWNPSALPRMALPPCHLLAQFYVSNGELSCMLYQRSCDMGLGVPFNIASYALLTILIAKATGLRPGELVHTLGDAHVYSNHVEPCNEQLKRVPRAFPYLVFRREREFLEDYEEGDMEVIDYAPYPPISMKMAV
testName: Inhibition of T. cruzi DHFR-TS (I50-derived Ki);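 note: enzymes were recombinant T. cruzi DHFR-TS and human DHFR, both expressed in E. coli and purified on a methotrexate affinity column, with dihydrofolate and NADPH as substrates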
Type: biochemical
testSettings: T. cruzi DHFR-TS; read-out: T. cruzi Ki (I50)
Worth noting: pKi values are minus log10 of concentrations stated in mol/L.

Sample answers from the record:
- molecule: "CC1(C)N=C(N)N=C(N)N1c1ccc(Cl)cc1 [cycloguanil, Cycloguanil, reference compound]"
  pKi: 6.43
- molecule: "NC1=NC(c2cccc(OCc3ccccc3)c2)N(c2ccc(OCc3ccccc3)cc2)C(N)=N1 (stereo not shown)"
  pKi: 7.40
- molecule: "NC1=NC(c2cccc(OCc3ccccc3)c2)N(c2cccc(COc3cc(Cl)c(Cl)cc3Cl)c2)C(N)=N1 (stereo not shown)"
  pKi: 7.52

Then this molecule:
Short answer on DHFR-TS from Trypanosoma cruzi (Trypanosoma cruzi, UniProt Q27793) for NC1=NC(c2ccc(Cl)cc2)N(c2ccc(Cl)cc2)C(N)=N1 (stereo not shown) , pKi: 6.57
